Attribution: PubChem BioAssay AID1963975

# System: 624824-186-R-J2-PDC multicell spheroids, viability
# Measurement description: Anticancer human tumor 624824-186-R-J2-PDC patient-derived colon adenocarcinoma cell line growth inhibition [PI3K]
# Condition context: second compound 10 µM; first compound 0.01 µM; hits give low values
Measure: viability, T/C (%)
Express it in %; write the number only.

- Molecule: "CCN1CCN(Cc2ccc(Nc3ncc(F)c(-c4cc(F)c5nc(C)n(C(C)C)c5c4)n3)nc2)CC1 + CC(Nc1ncnc2nc[nH]c12)c1cc2cccc(Cl)c2c(=O)n1-c1ccccc1"
  Units: "%"
  viability, T/C: 100
- Molecule: "CCN1CCN(Cc2ccc(Nc3ncc(F)c(-c4cc(F)c5nc(C)n(C(C)C)c5c4)n3)nc2)CC1 + Cc1nc(NC(=O)N2CCCC2C(N)=O)sc1-c1ccnc(C(C)(C)C(F)(F)F)c1"
  Units: "%"
  viability, T/C: 66.1
- Molecule: "Cn1ncnc1[C@H]1c2n[nH]c(=O)c3cc(F)cc(c23)N[C@@H]1c1ccc(F)cc1 + CC(Nc1ncnc2nc[nH]c12)c1cc2cccc(Cl)c2c(=O)n1-c1ccccc1"
  Units: "%"
  viability, T/C: 106

Requested read-out viability, T/C, target or system 624824-186-R-J2-PDC multicell spheroids, viability, entry CC(=O)c1c(C)c2cnc(Nc3ccc(N4CCNCC4)cn3)nc2n(C2CCCC2)c1=O + Cc1nc(NC(=O)N2CCCC2C(N)=O)sc1-c1ccnc(C(C)(C)C(F)(F)F)c1
75.9

Requested read-out viability, T/C, target or system 624824-186-R-J2-PDC multicell spheroids, viability, entry Cn1ncnc1[C@H]1c2n[nH]c(=O)c3cc(F)cc(c23)N[C@@H]1c1ccc(F)cc1 + Cc1nc(NC(=O)N2CCCC2C(N)=O)sc1-c1ccnc(C(C)(C)C(F)(F)F)c1
71.8

Requested read-out viability, T/C, target or system 624824-186-R-J2-PDC multicell spheroids, viability, entry CC(=O)c1c(C)c2cnc(Nc3ccc(N4CCNCC4)cn3)nc2n(C2CCCC2)c1=O + CC(Nc1ncnc2nc[nH]c12)c1cc2cccc(Cl)c2c(=O)n1-c1ccccc1
96.3

Requested read-out viability, T/C, target or system 624824-186-R-J2-PDC multicell spheroids, viability, entry CC(C)n1nc(-c2ccc3oc(N)nc3c2)c2c(N)ncnc21 + CC(Nc1ncnc2nc[nH]c12)c1cc2cccc(Cl)c2c(=O)n1-c1ccccc1
95.5

Requested read-out viability, T/C, target or system 624824-186-R-J2-PDC multicell spheroids, viability, entry CC(C)n1nc(-c2ccc3oc(N)nc3c2)c2c(N)ncnc21 + Cc1nc(NC(=O)N2CCCC2C(N)=O)sc1-c1ccnc(C(C)(C)C(F)(F)F)c1
61.5

###

# viability, T/C per record follows
# Test system: 624824-186-R-J2-PDC multicell spheroids, viability
# Measurement description: Anticancer human tumor 624824-186-R-J2-PDC cell line growth inhibition [PI3K];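 note: spheroids exposed to agents for 7 days before viability read; 100% = DMSO vehicle treated spheroids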
# Condition context: second compound 0.0316 µM; first compound 1 µM; hits give low values
Express it in %; write the number only.

- Compound: "CNC(=O)c1ccc(N2C(=S)N(c3ccc(C#N)c(C(F)(F)F)c3)C(=O)C2(C)C)cc1F + COc1c(OCCCN2CCOCC2)ccc2c3n(c(=NC(=O)c4cnc(N)nc4)nc12)CCN3"
  Study target: "624824-186-R-J2-PDC multicell spheroids, viability"
  viability, T/C [%]: 96.5
- Compound: "CC1(C)CCC(CN2CCN(c3ccc(C(=O)NS(=O)(=O)c4ccc(NCC5CCOCC5)c([N+](=O)[O-])c4)c(Oc4cnc5[nH]ccc5c4)c3)CC2)=C(c2ccc(Cl)cc2)C1 + Cc1nc(NC(=O)N2CCCC2C(N)=O)sc1-c1ccnc(C(C)(C)C(F)(F)F)c1"
  Study target: "624824-186-R-J2-PDC multicell spheroids, viability"
  viability, T/C [%]: 68.5
- Compound: "CCCS(=O)(=O)Nc1ccc(F)c(C(=O)c2c[nH]c3ncc(-c4ccc(Cl)cc4)cc23)c1F + Cc1nc(NC(=O)N2CCCC2C(N)=O)sc1-c1ccnc(C(C)(C)C(F)(F)F)c1"
  Study target: "624824-186-R-J2-PDC multicell spheroids, viability"
  viability, T/C [%]: 76.8
- Compound: "Cn1ncc(Cl)c1-c1cc(C(=O)NC(CN)Cc2cccc(F)c2)sc1Cl (stereo not given) + CC(Nc1ncnc2nc[nH]c12)c1cc2cccc(Cl)c2c(=O)n1-c1ccccc1"
  Study target: "624824-186-R-J2-PDC multicell spheroids, viability"
  viability, T/C [%]: 68.3

Next compound, viability, T/C to be filled in.
What value of measured viability, T/C is listed for C#Cc1c(F)ccc2cc(O)cc(-c3ncc4c(N5CC6CCC(C5)N6)nc(OCC56CCCN5CC(F)C6)nc4c3F)c12 (stereo not given) + CC(Nc1ccc2c(c1)OCCn1cc(N3C(=O)OCC3C(F)F)nc1-2)C(N)=O ?
102
